B1: GMCL1 (parent)
chain: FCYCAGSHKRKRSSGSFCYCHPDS

Variants of: B1
Assay: protein stability index of a GFP-peptide fusion (GPS, HEK-293T) (PSI 1-6); higher = more stable;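 note: lentivirally expressed fusions sorted by FACS into six bins by GFP to DsRed ratio, PSI derived from sequencing read proportions per bin multiplied by bin number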
Conditions: c terminus: a fixed tail appended
# maps each entry to its protein stability index

[
  {
    "Variant description": "Y3F",
    "protein stability index": 2.01
  },
  {
    "Variant description": "S16A",
    "protein stability index": 2.33
  },
  {
    "Variant description": "K11S",
    "protein stability index": 2.85
  },
  {
    "Variant description": "R12Q",
    "protein stability index": 2.33
  },
  {
    "Variant description": "G15V",
    "protein stability index": 2.6
  },
  {
    "Variant description": "S16H",
    "protein stability index": 2
  },
  {
    "Variant description": "S7L",
    "protein stability index": 1.89
  },
  {
    "Variant description": "P22A",
    "protein stability index": 2.64
  },
  {
    "Variant description": "H8Q",
    "protein stability index": 1.43
  },
  {
    "Variant description": "C4Q",
    "protein stability index": 1.01
  },
  {
    "Variant description": "S7G",
    "protein stability index": 1.02
  },
  {
    "Variant description": "K11Y",
    "protein stability index": 2.95
  },
  {
    "Variant description": "S7Q",
    "protein stability index": 1.77
  },
  {
    "Variant description": "C2N",
    "protein stability index": 1.27
  },
  {
    "Variant description": "F1E",
    "protein stability index": 4.31
  },
  {
    "Variant description": "G15T",
    "protein stability index": 1.96
  },
  {
    "Variant description": "Y3I",
    "protein stability index": 2.46
  },
  {
    "Variant description": "K9G",
    "protein stability index": 1.57
  },
  {
    "Variant description": "S14C",
    "protein stability index": 1.86
  },
  {
    "Variant description": "H21K",
    "protein stability index": 3.17
  },
  {
    "Variant description": "R12G",
    "protein stability index": 1.38
  },
  {
    "Variant description": "G6C",
    "protein stability index": 2.53
  },
  {
    "Variant description": "G6E",
    "protein stability index": 1.86
  },
  {
    "Variant description": "S24W",
    "protein stability index": 1.38
  },
  {
    "Variant description": "C2F",
    "protein stability index": 2.25
  },
  {
    "Variant description": "P22Q",
    "protein stability index": 1.91
  },
  {
    "Variant description": "R12N",
    "protein stability index": 2.01
  },
  {
    "Variant description": "C2M",
    "protein stability index": 1.51
  },
  {
    "Variant description": "P22W",
    "protein stability index": 2.27
  },
  {
    "Variant description": "S24L",
    "protein stability index": 1.91
  },
  {
    "Variant description": "H21G",
    "protein stability index": 2.55
  },
  {
    "Variant description": "K9C",
    "protein stability index": 2
  },
  {
    "Variant description": "S24H",
    "protein stability index": 2.09
  },
  {
    "Variant description": "Y3E",
    "protein stability index": 2.5
  },
  {
    "Variant description": "S24M",
    "protein stability index": 1.78
  },
  {
    "Variant description": "S7D",
    "protein stability index": 1.55
  },
  {
    "Variant description": "C20F",
    "protein stability index": 1.84
  },
  {
    "Variant description": "K9N",
    "protein stability index": 2.05
  },
  {
    "Variant description": "K11Q",
    "protein stability index": 1.33
  },
  {
    "Variant description": "R10I",
    "protein stability index": 2.32
  },
  {
    "Variant description": "S13P",
    "protein stability index": 2.67
  },
  {
    "Variant description": "R10T",
    "protein stability index": 2.27
  },
  {
    "Variant description": "H8S",
    "protein stability index": 2.33
  },
  {
    "Variant description": "F17Y",
    "protein stability index": 2.25
  },
  {
    "Variant description": "S16Y",
    "protein stability index": 2.14
  },
  {
    "Variant description": "G15I",
    "protein stability index": 2.41
  }
]
